Target: T1, DENV抗原 (DENV阳性血清) (dengue virus (DENV), serotype )
T1 construct: also called DENV antigen in DENV-positive serum
Assay: sandwich ELISA, antibody at 12.5 ng/ml captured on goat anti-mouse IgG, DENV-positive serum, HRP-labelled DENV mAb

[
  {
    "BINDER": "DF-5M32RMb1 (antibody, mouse IgG1, kappa, V domains shown, also called Anti-DF 5M32; Anti-DF 5M32单克隆抗体 (recombinant)) VH: QVQLQQSGAELARPGASVKLSCKASGYTFINYWMQWVKQRPGQGLEWIGAIYPGDGDTRYTQNFKGKAALTADKSSSTAYMQLSSLASEDSAVYYCATGTEGILDYWGQGTSVTVSS VL: DAVMTQTPLTLSVLIGQPASLSCKSSQSLLESDGKTYLNWLFQRPGQSPKRLIYLVSKLESGVPDRFTGSGSGTEFTLKISRVEAEDLGVYYCWQATHHPLTFGTGTNLELKR",
    "OD (450nm, 参考630nm), OD": 2.1
  }
]
